Values compiled from patent US20200237766A1.

- system: PKM2 (Homo sapiens, UniProt P14618)
- Sequence (P14618 whole entry): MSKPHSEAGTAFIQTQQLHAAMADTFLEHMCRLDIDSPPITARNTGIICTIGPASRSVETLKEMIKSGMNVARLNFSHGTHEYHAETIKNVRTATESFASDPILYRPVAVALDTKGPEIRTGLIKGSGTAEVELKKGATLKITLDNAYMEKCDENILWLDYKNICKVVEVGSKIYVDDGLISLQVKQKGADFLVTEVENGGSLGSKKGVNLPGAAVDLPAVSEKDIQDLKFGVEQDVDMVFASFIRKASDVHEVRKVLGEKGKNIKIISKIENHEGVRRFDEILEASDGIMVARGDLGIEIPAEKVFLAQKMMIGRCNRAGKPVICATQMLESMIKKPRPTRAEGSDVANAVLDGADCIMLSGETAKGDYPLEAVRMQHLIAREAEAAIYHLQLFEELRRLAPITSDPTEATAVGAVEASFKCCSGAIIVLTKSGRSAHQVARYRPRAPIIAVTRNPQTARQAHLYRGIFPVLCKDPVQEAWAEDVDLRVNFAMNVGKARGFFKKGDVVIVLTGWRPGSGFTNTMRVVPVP
- method: PKM2 activation biochemical assay (AC50 / max. response vs fructose 1,6-bisphosphate)
- experimentalConditions: biochemical assay; read-out: PKM2 AC50
Could you mark each record Yes if its AC50 falls strictly under 600 nM, and No if it equals or exceeds it?

compound | system | labelValue
O=C(c1cc(C(F)(F)F)n[nH]1)N(CCN1CCCC1)Cc1cccc2[nH]cc(F)c12 | PKM2 (Homo sapiens, UniProt P14618) | Yes
O=C(c1cc(C(F)(F)F)n[nH]1)N(Cc1ccccc1F)CC1CCOCC1 | PKM2 (Homo sapiens, UniProt P14618) | No
O=C(CCSC(=S)NCc1cccnc1)c1nccs1 | PKM2 (Homo sapiens, UniProt P14618) | No
O=c1cc(Cn2cnc3ccccc32)nc2ccccn12 | PKM2 (Homo sapiens, UniProt P14618) | Yes
COc1ccc(C(=O)CCSC(=S)NCc2cccnc2)cc1 | PKM2 (Homo sapiens, UniProt P14618) | No
CC1CCCCN1CCN(Cc1ccccc1F)C(=O)c1cc(C(F)(F)F)n[nH]1 (stereo not drawn) | PKM2 (Homo sapiens, UniProt P14618) | Yes
CCN1CCC(CCN(Cc2ccccc2Cl)C(=O)c2cc(C(F)(F)F)n[nH]2)CC1 | PKM2 (Homo sapiens, UniProt P14618) | No
CN(C)Cc1c[nH]c2cccc(CN(CC3CCC3)C(=O)c3cc(Cl)n[nH]3)c12 | PKM2 (Homo sapiens, UniProt P14618) | No

With those in mind, consider the next compound.
-- ask Please indicate whether the reported AC50 of Nc1cccc(Cl)c1CN(CCN1CCCCCC1)C(=O)c1cc(C(F)(F)F)n[nH]1 is strictly below 600 nM.
-- reply Yes

###

- system: PKM2 (Homo sapiens, UniProt P14618)
- method: PKM2 activation biochemical assay (AC50 / max. response vs fructose 1,6-bisphosphate)
- experimentalConditions: biochemical assay; read-out: PKM2 AC50
observable: log10 AC50 (log10 of the value in nM)
On a log10 scale: recorded AC50, unit nM.

Examples from the recorded data:
molecule | system | log10 AC50
O=C(c1cc(C(F)(F)F)n[nH]1)N(Cc1ccc(O)cc1Cl)CC1CCC1 | PKM2 (Homo sapiens, UniProt P14618) | 1.32
O=C(c1cc(C(F)(F)F)n[nH]1)N(CCN1CCCCC1)Cc1ccccc1Cl | PKM2 (Homo sapiens, UniProt P14618) | 1.82
CO[C@H]1CC[C@H](N(Cc2c(F)cccc2F)C(=O)c2cc(C(F)(F)F)n[nH]2)CC1 | PKM2 (Homo sapiens, UniProt P14618) | 2.96
CCN(CC)CCN(Cc1cccc(Cl)c1Cl)C(=O)c1cc(C(F)(F)F)n[nH]1 | PKM2 (Homo sapiens, UniProt P14618) | 2.27

Turning now to a further record.
-- ask Recorded log10 AC50 of O=C(c1cc(C(F)(F)F)n[nH]1)N(Cc1cccc2[nH]ccc12)NC1CCC1 , please.
-- reply 1.83

###

Documented AC50 across a set of molecules
- system: PKM2 (Homo sapiens)
- method: PKM2 activation biochemical assay (AC50 / max. response vs fructose 1,6-bisphosphate)
- experimentalConditions: biochemical assay; read-out: PKM2 AC50
Your answer is read as nM, so omit the unit and give the number.

structureSmilesString | AC50 / nM
CCN(CC)CCN(Cc1c(F)cccc1Cl)C(=O)c1cc(C(F)(F)F)n[nH]1 | 94
O=c1cc(Cn2cnc3ccccc32)nc2sccn12 | 266
O=C(c1cc(C(F)(F)F)n[nH]1)N(CCO)Cc1ccc(O)cc1F | 6200

Turning now to a further record.
-- ask Recorded AC50 of CCNCCN(Cc1ccccc1F)C(=O)c1cc(C(F)(F)F)n[nH]1 , please.
-- reply 2150
